Cited source for all entries: the OPERA property sets (Mansouri et al. 2018)

# run_parameters: 25 °C
property: solubility (µM)
Give bare numbers, in µM.

Q. Data request, read-out solubility, for CCCCCCCCCCc1ccccc1
A. 0.011

* * *

So I've got a bunch of molecules here, and I need their logP values.
One number for each entry.

CCCCCCCCCCCCCCCC(=O)OC
7.38
CCCCCCCCCCCCCCCCCC(=O)OC
8.35
CCCCCCCCCCCCCC(=O)OC
6.41

# return logP for each item in the list
1. CCCCCCCCCCCC(=O)OCC(CC)CCCC (centres undefined)
2. CCCCCCCCCCCC(=O)OC
3. CCCCCCCCCCCC(=O)OCCC
4. CCCCCCCC/C=C\CCCCCCCCCCCC(=O)OC
5. CC/C=C\C/C=C\C/C=C\CCCCCCCC(=O)OC

A.
[8.03, 5.41, 6.11, 9.32, 6.29]

# return logP for each item in the list
1. CCCCCCCCCCCC(=O)OCCCC
2. CCCCC/C=C\C/C=C\CCCCCCCC(=O)OC
3. CCCCCCCCCCCCCCCCCCCC(=O)OC
4. CCCCCCCC/C=C\CCCCCCCC(=O)OC
5. CCCCCCCCCCCC(=O)OCC
6. CCCCCCCCCCCCCCCCCCCCCC(=O)OC

A.
1. 6.51
2. 6.82
3. 9.3
4. 7.45
5. 5.71
6. 10.2
